Let's go through some recorded IC50 values for UniProt P17931 together.
Sequence (P17931 whole entry): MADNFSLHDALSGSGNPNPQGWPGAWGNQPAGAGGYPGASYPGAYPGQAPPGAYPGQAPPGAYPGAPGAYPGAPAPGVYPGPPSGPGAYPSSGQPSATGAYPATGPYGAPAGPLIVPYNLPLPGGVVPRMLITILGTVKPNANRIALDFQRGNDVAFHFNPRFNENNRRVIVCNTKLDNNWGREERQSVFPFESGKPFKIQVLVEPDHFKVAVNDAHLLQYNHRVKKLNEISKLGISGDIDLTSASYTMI
Quantity: IC50 (nM)

I. CO[C@@H]1[C@@H](n2cc(-c3ccc(F)c(F)c3F)nn2)[C@@H](O)[C@@H](CO)O[C@@H]1Cn1cc(C2(O)CCCC2)nn1
II. CO[C@@H]1[C@@H](n2cc(-c3ccc(Cl)c(F)c3F)nn2)[C@@H](O)[C@@H](CO)O[C@@H]1Cn1cc(C2CC(F)(F)C2)nn1
Smaller IC50 value, I vs II ? Which one? Tell me its label.
I
(I: 90 nM, II: 160 nM)

1. CO[C@@H]1[C@@H](n2cc(-c3ccc(Cl)c(F)c3F)nn2)[C@@H](O)[C@@H](CO)O[C@@H]1Cn1cc(C(C)(C)O)nn1
2. CO[C@@H]1[C@@H](n2cc(-c3ccc(F)c(F)c3F)nn2)[C@@H](O)[C@@H](CO)O[C@@H]1Cn1cc(C2(O)CC2)nn1
1 or 2 : whose IC50 is greater? Which one? Tell me its label.
2
(2: 130 nM, 1: 70 nM)

---

# Target Or System: human Gal-1 (hGal-1) (Homo sapiens, UniProt P09382, C131S/C17S/C43S/C61S/C89S)
# Protocol Text: Competitive binding assay: biotinylated hGal-1 binding to microplate-adsorbed asialofetuin (ASF)
# Condition Details: IC50 values from several measurements given as geomean
pIC50: −log10 of the molar value.
Quantity: pIC50

Compound | Quantity | Quantitative Readout
CO[C@@H]1[C@@H](n2cc(-c3ccc(Br)c(F)c3F)nn2)[C@@H](O)[C@@H](CO)O[C@@H]1Cn1cc(C2(O)CCC2)nn1 | pIC50 | 5.59

I. CO[C@@H]1[C@@H](n2cc(-c3ccc(Br)c(F)c3F)nn2)[C@@H](O)[C@@H](CO)O[C@@H]1Cc1cn(C23CC(C2)C3)nn1
II. CO[C@@H]1[C@@H](n2cc(-c3ccc(Cl)c(F)c3F)nn2)[C@@H](O)[C@@H](CO)O[C@@H]1Cc1cn(C2CCOCC2(F)F)nn1 (single isomer, unassigned) [Example 2.1.89.B]
III. CO[C@@H]1[C@@H](n2cc(-c3ccc(C)c(F)c3F)nn2)[C@@H](O)[C@@H](CO)O[C@@H]1Cc1cn(C2(C)CCC2)nn1
Hey, quick one: sort these by pIC50, low to high? Thanks in advance for listing the labels in the requested order.
I, III, II
(I: 5.41, III: 5.84, II: 6.06)

---

# Target Or System: human Gal-1 (hGal-1) (Homo sapiens, UniProt P09382, C131S/C17S/C43S/C61S/C89S)
# Protocol Text: Competitive binding assay: biotinylated hGal-1 binding to microplate-adsorbed asialofetuin (ASF)
# Condition Details: IC50 values from several measurements given as geomean
pIC50: −log10 of the molar value.
Quantity: pIC50

Smiles Entry | Quantitative Readout
CO[C@@H]1[C@@H](n2cc(-c3ccc(F)c(F)c3F)nn2)[C@@H](O)[C@@H](CO)O[C@@H]1Cc1cn(C23CC(C)(C2)C3)nn1 | 6.15
CO[C@@H]1[C@@H](n2cc(-c3ccc(C)c(F)c3F)nn2)[C@@H](O)[C@@H](CO)O[C@@H]1Cc1cn(C2(CCO)COC2)nn1 | 6.16
CO[C@@H]1[C@@H](n2cc(-c3ccc(Cl)c(F)c3F)nn2)[C@@H](O)[C@@H](CO)O[C@@H]1Cc1cn(C2(C)CCC2)nn1 | 6.16
